biological target: Full-length, wild type recombinant human TSG-6 (human, UniProt P98066 18-277); test: SPR
Sequence (P98066 18-277): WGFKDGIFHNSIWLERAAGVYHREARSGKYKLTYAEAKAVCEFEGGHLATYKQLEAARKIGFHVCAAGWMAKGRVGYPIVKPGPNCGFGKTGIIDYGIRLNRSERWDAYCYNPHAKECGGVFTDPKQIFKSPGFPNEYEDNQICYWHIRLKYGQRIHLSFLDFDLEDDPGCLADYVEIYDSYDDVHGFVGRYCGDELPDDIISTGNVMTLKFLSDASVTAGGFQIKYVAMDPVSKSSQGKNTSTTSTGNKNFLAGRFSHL
Form field: Kd (one value per entry).
Write the number in nM without appending the unit.

- BINDER: "CXCL11 (ligand, UniProt O14625 22-94, looked up) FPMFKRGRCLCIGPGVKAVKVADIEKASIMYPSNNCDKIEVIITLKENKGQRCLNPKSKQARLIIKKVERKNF"
  Kd / nM: 16.4

Here's the next entry for you.
// query Using known records, supply Kd for CXCL8_T (K64A/K67A/R68A) mutant (ligand, 72-residue mature form by convention (mature numbering +27 = precursor); monomer/dimer equilibrium) SAKELRCQCIKTYSKPFHPKFIKELRVIESGPHCANTEIIVKLSDGRELCLDPKENWVQRVVEAFLAAAENS
// result 2110

These entries and their values trace back to paper PMC3988464.
